# ASSAYED TARGET: Ephrin type-A receptor 4 (Homo sapiens) (UniProt P54764);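 further: mean inhibition of EPHA4 from the GSK PKIS screening set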
# Sequence (P54764 whole entry): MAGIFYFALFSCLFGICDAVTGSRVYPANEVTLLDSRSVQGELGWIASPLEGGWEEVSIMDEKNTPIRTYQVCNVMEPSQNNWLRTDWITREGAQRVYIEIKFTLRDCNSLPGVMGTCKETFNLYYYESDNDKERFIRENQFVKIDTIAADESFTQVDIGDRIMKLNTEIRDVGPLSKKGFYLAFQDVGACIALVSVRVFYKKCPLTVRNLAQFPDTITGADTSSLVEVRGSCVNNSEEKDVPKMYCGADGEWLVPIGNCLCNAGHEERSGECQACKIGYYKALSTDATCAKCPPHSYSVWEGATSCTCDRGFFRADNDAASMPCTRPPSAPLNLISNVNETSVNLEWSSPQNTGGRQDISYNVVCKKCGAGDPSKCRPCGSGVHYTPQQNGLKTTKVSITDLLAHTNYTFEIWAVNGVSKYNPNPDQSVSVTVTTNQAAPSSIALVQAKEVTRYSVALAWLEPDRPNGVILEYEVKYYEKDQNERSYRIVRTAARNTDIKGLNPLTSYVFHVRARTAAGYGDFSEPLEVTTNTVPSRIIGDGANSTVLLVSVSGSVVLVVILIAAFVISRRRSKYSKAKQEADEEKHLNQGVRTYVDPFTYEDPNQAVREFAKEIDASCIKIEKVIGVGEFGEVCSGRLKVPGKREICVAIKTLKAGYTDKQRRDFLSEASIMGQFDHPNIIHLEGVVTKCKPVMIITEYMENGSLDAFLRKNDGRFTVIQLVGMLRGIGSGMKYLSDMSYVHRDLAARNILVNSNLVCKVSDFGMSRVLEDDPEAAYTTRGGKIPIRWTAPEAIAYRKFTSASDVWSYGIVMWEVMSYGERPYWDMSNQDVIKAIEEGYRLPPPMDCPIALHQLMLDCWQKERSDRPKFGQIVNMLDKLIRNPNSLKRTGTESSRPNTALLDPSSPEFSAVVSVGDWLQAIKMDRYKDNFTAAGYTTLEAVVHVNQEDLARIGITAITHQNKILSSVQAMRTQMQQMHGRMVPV
# CONDITION DETAILS: at 0.1 µM
OBSERVABLE: inhibition (%)
Numbers only, in %.

O=C1Nc2ccc(-c3cccnc3)cc2C1=Cc1cc(Br)c(O)c(Br)c1 3.36
Cc1ccc2c(c1)/C(=N/Nc1ccc(S(N)(=O)=O)cc1)C(=O)N2 -0.11
Cc1cc(O)cc(C)c1/C=C/c1cncc(C(=O)N(C)C)c1 8.99
C[C@@H](Oc1cc(-n2cnc3ccc(OC[C@@H](O)CO)cc32)sc1C(N)=O)c1ccccc1Cl -2.22
CS(=O)(=O)CCNCc1nc(-c2ccc3ncnc(Nc4ccc(OCc5cccc(C(F)(F)F)c5)cc4)c3c2)cs1 0.66
COc1cccc(-n2nc(C)c3c(N/N=C(\C)c4ccncc4)ncnc32)c1 3.69
COc1cc(Nc2nccc(-c3cnn4ncccc34)n2)cc(OC)c1 9.67
O=C1Nc2ccccc2/C1=C/Nc1ccc2[nH]c(=O)[nH]c2c1 12.9
Cc1ccc(O)cc1Nc1ccnc2ccc(S(C)(=O)=O)cc12 89.3
Nc1nccc(C#Cc2cncnc2Nc2ccc(OCc3cccc(F)c3)c(Cl)c2)n1 6.14

Each compound below has a recorded value; state its inhibition.
1. CN1CCN(C(=O)c2ccc(NC(=O)Nc3ccc(N(C)c4ccnc(Nc5ccc(CS(C)(=O)=O)cc5)n4)cc3)cc2)CC1
2. CC(C)c1ccc(Nc2nccc(-c3cnn4ncccc34)n2)cc1
3. COC(=O)Nc1nc2cc(Oc3ccc(NC(=O)Nc4cccc(Br)c4)cc3)ccc2[nH]1
4. NS(=O)(=O)c1ccc(Nc2cc(-c3cccc(O)c3)n[nH]2)cc1
5. Oc1cccc(-c2nc(-c3ccccc3)[nH]c2-c2ccncc2)c1
6. CCS(=O)(=O)c1ccc(OC)c(Nc2nccc(N(C)c3ccc4c(C)n[nH]c4c3)n2)c1
7. COc1cc2ncnc(Nc3ccc(C)c(O)c3)c2cc1OC

[out]
[5.53, 8.08, 52.1, 10.1, 11.7, 11.8, 15.9]

Each compound below has a recorded value; state its inhibition.
1. CN(C)C(=O)O[C@@H]1CN[C@@H](C#Cc2cc3ncnc(Nc4ccc(OCc5cccc(F)c5)c(Cl)c4)c3s2)C1
2. c1ccc(Nc2ncc(-c3ccccc3)o2)cc1

[out]
1. 1.85
2. 7.56
